# Test system: L1210 leukemia ip in BDF1 mice, survival T/C
# assayProtocol: NCI In Vivo Anticancer Drug Screen. Data for tumor model L1210 Leukemia (intraperitoneal) in B6D2F1 (BDF1) mice
# conditionContext: endpoint: mean survival time; dose: 50.0 mg/kg/injection; schedule: Q01DX009 (ip); vehicle: Klucel (hydroxypropylcellulose) (HPC); higher = longer survival
Toxic doses and inconclusive results are not listed.
propertyName: T/C

Known results for compounds:
{"columns": ["compound", "propertyName", "result"],
 "data": [
  ["C=CCOC(=O)c1ccco1", "T/C", "106 % of control"],
  ["CCCCCCCCCC(N)=O", "T/C", "97 % of control"],
  ["CC(=O)Nc1cccc(Br)c1", "T/C", "101 % of control"],
  ["CC(=O)Nc1cccc(C(F)(F)F)c1", "T/C", "96 % of control"]
]}

Could you tell me which T/C is on file for CC(C)(C)NC/C(=C\c1ccccc1)C(=O)c1ccccc1 ? 98 % of control

Could you tell me which T/C is on file for O=C(NC(CSC(c1ccccc1)c1ccccc1)C(=O)O)OCc1ccccc1 (stereo unspecified) ? 100 % of control

Could you tell me which T/C is on file for CC1CCc2nc(C#N)c(N)nc2C1 (stereo unspecified) ? 103 % of control

Could you tell me which T/C is on file for CN1C(=O)CCS(=O)(=O)C1c1ccc(Cl)cc1 (stereo unspecified) ? 103 % of control

Could you tell me which T/C is on file for C=C1CC[N+]2(CCCC)CCCC12 (stereo unspecified) ? 95 % of control

---

Each entry below lists one item and its recorded T/C value.
# Tested on: L1210 leukemia ip in BDF1 mice, survival T/C
# assayProtocol: NCI In Vivo Anticancer Drug Screen. Data for tumor model L1210 Leukemia (intraperitoneal) in B6D2F1 (BDF1) mice
# conditionContext: endpoint: mean survival time; dose: 100.0 mg/kg/injection; schedule: Q04DX002 (ip); vehicle: saline with Tween-80; higher = longer survival
Inconclusive results and toxic doses are left out.

{"columns": ["substanceSmiles", "T/C"],
 "data": [
  ["CC(=NC(c1ccccc1)c1ccccc1)N(C)C", "104 % of control"]
]}

Could you tell me which T/C is on file for CCCCNC(=S)SCCC(=O)O ? 100 % of control

Could you tell me which T/C is on file for NNC(=O)OCc1ccccc1 ? 100 % of control

Could you tell me which T/C is on file for CSc1ccc(NC(=O)Nc2ccc([N+](=O)[O-])cc2C)cc1 ? 98 % of control

---

# System: L1210 leukemia ip in BDF1 mice, survival T/C
# assayProtocol: NCI In Vivo Anticancer Drug Screen. Data for tumor model L1210 Leukemia (intraperitoneal) in B6D2F1 (BDF1) mice
# conditionContext: endpoint: mean survival time; dose: 100.0 mg/kg/injection; schedule: Q04DX003 (ip); vehicle: saline with Tween-80; higher = longer survival
# Experimental: The antitumor activity of compounds was measured in mice bearing transplantable tumors. Survival or tumor size were measured and the results are expressed as the measurement made in the treated group (T) divided by the measurement made in the vehicle treated control group (C). The tumor model used in this assay is L1210 Leukemia (intraperitoneal) in B6D2F1 (BDF1) mice
Toxic doses and inconclusive results are not listed.
propertyName: T/C

Known results for molecules:
{"columns": ["molecule", "result"],
 "data": [
  ["Cc1ncc(C(=O)c2ccccc2)n1Cc1ccccc1", "94 % of control"],
  ["CN(C)c1nc(=[N+](C)C)ss1", "100 % of control"],
  ["Brc1c(N=Cc2ccccc2)ccc2ccccc12", "102 % of control"],
  ["CCC(C)C(CN)(CCCN1CCOCC1)c1cccc2ccccc12 (configuration not stated)", "93 % of control"],
  ["CCC(C)NC(=O)/C=C/C(=O)NC(C)CC (configuration not stated)", "91 % of control"]
]}

Could you tell me which T/C is on file for CC(=O)NS(=O)(=O)c1ccc(N)cc1 ? 98 % of control

Could you tell me which T/C is on file for COc1ccc(C(=O)C(C)Br)c(OCc2ccccc2)c1OC (configuration not stated) ? 106 % of control

---

# System: L1210 leukemia ip in BDF1 mice, survival T/C
# assayProtocol: NCI In Vivo Anticancer Drug Screen. Data for tumor model L1210 Leukemia (intraperitoneal) in B6D2F1 (BDF1) mice
# conditionContext: endpoint: mean survival time; dose: 400.0 mg/kg/injection; schedule: Q04DX002 (ip); vehicle: saline; higher = longer survival
# Method: The antitumor activity of compounds was measured in mice bearing transplantable tumors. Survival or tumor size were measured and the results are expressed as the measurement made in the treated group (T) divided by the measurement made in the vehicle treated control group (C). The tumor model used in this assay is L1210 Leukemia (intraperitoneal) in B6D2F1 (BDF1) mice
Toxic doses and inconclusive results are not listed.
propertyName: T/C

{"columns": ["compound", "studyTarget", "T/C"],
 "data": [
  ["O=S(=O)(O)C(O)c1ccccc1 (stereo not drawn)", "L1210 leukemia ip in BDF1 mice, survival T/C", "103 % of control"],
  ["CC(=O)OCCn1c([N+](=O)[O-])cnc1/C=[N+](/[O-])CCO", "L1210 leukemia ip in BDF1 mice, survival T/C", "100 % of control"],
  ["C[CH2][Ge]1([CH2]C)[CH2]CC2(C[CH2]1)NC(=O)N(CCCN(C)C)C2O (stereo not drawn)", "L1210 leukemia ip in BDF1 mice, survival T/C", "88 % of control"],
  ["CC(C)(C)OC(=O)NO", "L1210 leukemia ip in BDF1 mice, survival T/C", "110 % of control"],
  ["COC1c2ccccc2CC1(C)C (stereo not drawn)", "L1210 leukemia ip in BDF1 mice, survival T/C", "94 % of control"]
]}

API: value(readout= T/C, system= L1210 leukemia ip in BDF1 mice, survival T/C, query= COP(=O)(OC)C(O)C(Cl)Cl (stereo not drawn) ) 104 % of control

API: value(readout= T/C, system= L1210 leukemia ip in BDF1 mice, survival T/C, query= CC(O)C(N)C(=O)O (stereo not drawn) ) 107 % of control

API: value(readout= T/C, system= L1210 leukemia ip in BDF1 mice, survival T/C, query= O=C(COc1ccc(Cl)cc1)NNc1ccccc1 ) 114 % of control

---

# System: L1210 leukemia ip in BDF1 mice, survival T/C
# assayProtocol: NCI In Vivo Anticancer Drug Screen. Data for tumor model L1210 Leukemia (intraperitoneal) in B6D2F1 (BDF1) mice
# conditionContext: endpoint: mean survival time; dose: 200.0 mg/kg/injection; schedule: Q04DX002 (ip); vehicle: saline with Tween-80; higher = longer survival
Inconclusive results and toxic doses are left out.
propertyName: T/C

Known results for compounds:
{"columns": ["compound", "T/C"],
 "data": [
  ["CCOC(=O)c1c(/N=C/c2cc(Br)cc(Br)c2O)sc2c1CCCC2", "102 % of control"],
  ["O=C1c2ccccc2C(=O)N1CNc1ccccc1Cl", "91 % of control"],
  ["Cc1cccc(Cl)c1OCC(=O)Nc1ccccc1", "104 % of control"],
  ["Cc1ccc(N2C=C(c3ccccc3)CC2=O)cc1", "100 % of control"],
  ["N#C/C(=C\\c1cc(Cl)ccc1O)C1CCC([N+](=O)[O-])CC1 (stereo not drawn)", "113 % of control"]
]}

Could you tell me which T/C is on file for O=C(NNC(=O)c1ccccc1O)c1ccccc1 ? 93 % of control

Could you tell me which T/C is on file for CCCCCCCCCCC1CCCC1 ? 98 % of control

Could you tell me which T/C is on file for Nn1c(Cc2ccccc2)nnc1Cc1ccccc1 ? 87 % of control

Could you tell me which T/C is on file for C1CC2CC1CC1C3CC4CCC(C4)C3OC21 (stereo not drawn) ? 91 % of control

Could you tell me which T/C is on file for O=C(O)CCc1ccc(-c2cccc([N+](=O)[O-])c2)o1 ? 105 % of control

Could you tell me which T/C is on file for CC(C)NCc1ccccc1 ? 98 % of control

Could you tell me which T/C is on file for CCCCS(=O)(=O)N(CCC)CCC ? 93 % of control

Could you tell me which T/C is on file for CC1(CO)CC2C=CC1C2 (stereo not drawn) ? 99 % of control

---

# Test system: L1210 leukemia ip in BDF1 mice, survival T/C
# assayProtocol: NCI In Vivo Anticancer Drug Screen. Data for tumor model L1210 Leukemia (intraperitoneal) in B6D2F1 (BDF1) mice
# conditionContext: endpoint: mean survival time; dose: 200.0 mg/kg/injection; schedule: Q01DX001 (ip); vehicle: saline with Tween-80; higher = longer survival
Inconclusive results and toxic doses are left out.
propertyName: T/C

Known results for compounds:
{"columns": ["compound", "studyTarget", "T/C"],
 "data": [
  ["CN(C)C=NCCNc1ccc([N+](=O)[O-])cn1", "L1210 leukemia ip in BDF1 mice, survival T/C", "95 % of control"],
  ["CCCCOP(=O)(OCCCC)C(O)CCC (stereo not given)", "L1210 leukemia ip in BDF1 mice, survival T/C", "93 % of control"]
]}

Could you tell me which T/C is on file for CC(C)CCC(=O)OC1CCC2(C)C(=CCC3C2CCC2(C)C(O)CCC32)C1 (stereo not given) ? 93 % of control

Could you tell me which T/C is on file for CCC(=O)c1ccc(OCC(O)CN2CCN(c3ccccc3Cl)CC2)cc1 (stereo not given) ? 104 % of control

Could you tell me which T/C is on file for Cc1c(Cl)cccc1NC(=O)Nc1cccc(C(F)(F)F)c1 ? 91 % of control

Could you tell me which T/C is on file for CCC(=O)Nc1cccc(OP(=O)(N(C)C)N(C)C)c1 ? 102 % of control

Could you tell me which T/C is on file for CCCCCCCCCCCC(=O)NC(=S)Nc1ccc(C(=O)O)cc1 ? 102 % of control

Could you tell me which T/C is on file for Cc1ccc(Cl)cc1NC(=O)Nc1ccc(N(C)C)cc1 ? 87 % of control

Could you tell me which T/C is on file for CCCCCCCc1nc2nn[nH]c(=O)c2[nH]1 ? 100 % of control

Could you tell me which T/C is on file for CCOC(=O)CSc1nc2ccccc2[nH]1 ? 98 % of control

Could you tell me which T/C is on file for CCC(O)(/C(=N/Nc1ccc([N+](=O)[O-])cc1[N+](=O)[O-])c1ccccc1)c1ccccc1 (stereo not given) ? 89 % of control

Could you tell me which T/C is on file for O=C(NC(=S)Nc1ccc(Cl)c(Cl)c1)c1ccc(Cl)cc1Cl ? 89 % of control

Could you tell me which T/C is on file for COC(=O)c1ccccc1NC(OC)c1cccc([N+](=O)[O-])c1 (stereo not given) ? 92 % of control

Could you tell me which T/C is on file for CC(=O)Nc1c(Cl)cc(Cl)cc1Cl ? 93 % of control

Could you tell me which T/C is on file for O=C1c2ccccc2C(=O)c2[nH]c(-c3ccccc3)cc21 ? 94 % of control
